target: human β3 adrenergic receptor (Homo sapiens, UniProt P13945); construct: expressed in transfected cells; host or cells: CHO cells, stably transfected; assay: Functional assay: cAMP production in CHO cells stably transfected with cloned β3-adrenergic receptor (LANCE TR-FRET); assay type: cell-based; conditions: Table 1, read-out: Human β3 agonist functional activity
Sequence (P13945 whole entry): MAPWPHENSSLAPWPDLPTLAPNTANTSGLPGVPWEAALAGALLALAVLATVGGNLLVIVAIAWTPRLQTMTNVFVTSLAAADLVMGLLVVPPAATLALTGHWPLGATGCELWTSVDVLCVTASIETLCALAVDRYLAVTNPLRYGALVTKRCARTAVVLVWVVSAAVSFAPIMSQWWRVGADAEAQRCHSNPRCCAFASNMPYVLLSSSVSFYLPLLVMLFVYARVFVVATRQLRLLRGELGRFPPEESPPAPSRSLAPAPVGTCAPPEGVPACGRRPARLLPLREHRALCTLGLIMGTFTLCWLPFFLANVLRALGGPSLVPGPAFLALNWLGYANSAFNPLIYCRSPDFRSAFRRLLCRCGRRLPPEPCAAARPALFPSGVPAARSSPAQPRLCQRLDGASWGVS
pEC50: −log10 of the molar value.
Readings of pEC50 for the listed molecules

O[C@H](c1ccccc1)[C@H]1CC[C@@H](Cc2ccc3nc(C4CCc5ccnn54)[nH]c3c2)N1 (stereo partly shown) :: 6.00 to 7.00
OC(c1cccnc1)C1CCC(Cc2ccc3nc(-c4ccccc4C(F)(F)F)[nH]c3c2)N1 (stereo not shown) :: 7.00 to 7.96
O[C@H](c1ccccc1)[C@H]1CC[C@@H](Cc2ccc3nc(C4CCc5scnc54)[nH]c3c2)N1 (stereo partly shown) :: 7.00 to 7.96
Cc1nc(Cc2nc3ccc(C[C@@H]4CC[C@H]([C@H](O)c5ccccc5)N4)cc3[nH]2)cs1 :: 6.00 to 7.00

Name the reported pEC50 value associated with the molecule O[C@H](c1ccccc1)[C@H]1CC[C@@H](Cc2ccc3nc(CCn4ccnc4-c4ccccc4)[nH]c3c2)N1 6.00 to 7.00

Name the reported pEC50 value associated with the molecule O[C@H](c1cccnc1)[C@H]1CC[C@@H](Cc2ccc3nc(-c4c(F)cccc4F)[nH]c3c2)N1 6.00 to 7.00

Name the reported pEC50 value associated with the molecule CS(=O)(=O)c1ccc(-c2nc3ccc(C[C@@H]4CC[C@H]([C@H](O)c5cccnc5)N4)cc3[nH]2)cc1 6.00 to 7.00

----------
target: human β3 adrenergic receptor (Homo sapiens, UniProt P13945); construct: expressed in transfected cells; host or cells: CHO cells, stably transfected; test: Functional assay: cAMP production in CHO cells stably transfected with cloned β3-adrenergic receptor (LANCE TR-FRET); type: cell-based; settings: Table 1, read-out: Human β3 agonist functional activity
Readings of EC50 for the listed compounds

C[C@@H](c1nc2ccc(C[C@@H]3CC[C@H]([C@H](O)c4cccnc4)N3)cc2[nH]1)n1cccnc1=O [Example 28] :: 101 to 1000 nM
OC(c1ccccc1)C1CCC(Cc2ccc3nc(CCn4cnc5ccccc54)[nH]c3c2)N1 (stereo not drawn) [Example 13] :: 101 to 1000 nM
CS(=O)(=O)c1ccccc1-c1nc2ccc(C[C@@H]3CC[C@H]([C@H](O)c4cccnc4)N3)cc2[nH]1 [Example 32] :: 11 to 100 nM
Oc1cccc(-c2nc3ccc(C[C@@H]4CC[C@H]([C@H](O)c5cccnc5)N4)cc3[nH]2)n1 [Example 40] :: 1000 to 3000 nM

Let us examine a further case.
Name the reported EC50 value associated with the compound O=c1ccncn1Cc1nc2ccc(C[C@@H]3CC[C@H]([C@H](O)c4ccccc4)N3)cc2[nH]1 [Example 19] 101 to 1000 nM

----------
Readings of EC50 for the listed compounds
target: human β3 adrenergic receptor (Homo sapiens, UniProt P13945); construct: expressed in transfected cells; host or cells: CHO cells, stably transfected; experiment: Functional assay: cAMP production in CHO cells stably transfected with cloned β3-adrenergic receptor (LANCE TR-FRET); assay type: cell-based; details: Table 1, read-out: Human β3 agonist functional activity

Cc1cc2ncn(CCc3nc4ccc(C[C@@H]5CC[C@H]([C@H](O)c6ccccc6)N5)cc4[nH]3)c2cc1C :: 101 to 1000 nM
O=C(O)c1ccc(-c2nc3ccc(C[C@@H]4CC[C@H]([C@H](O)c5cccnc5)N4)cc3[nH]2)cc1 :: 11 to 100 nM
O[C@H](c1cccnc1)[C@H]1CC[C@@H](Cc2ccc3nc(C4CCc5ccnn54)[nH]c3c2)N1 (stereo partly shown) :: 101 to 1000 nM
OC(c1cccnc1)C1CCC(Cc2ccc3nc(C4CCc5scnc54)[nH]c3c2)N1 (stereo not shown) :: 101 to 1000 nM
O[C@H](c1ccccc1)[C@H]1CC[C@@H](Cc2ccc3nc(CCn4cncn4)[nH]c3c2)N1 :: 101 to 1000 nM

# returns recorded EC50 (system: human β3 adrenergic receptor (Homo sapiens, UniProt P13945)) for C[C@@H](c1nc2ccc(CC3CC[C@H]([C@H](O)c4ccccc4)N3)cc2[nH]1)n1cccnc1=O (stereo partly shown) 11 to 100 nM

# returns recorded EC50 (system: human β3 adrenergic receptor (Homo sapiens, UniProt P13945)) for O[C@H](c1cccnc1)[C@H]1CC[C@@H](Cc2ccc3nc(-c4ccccc4-c4ncc[nH]4)[nH]c3c2)N1 101 to 1000 nM
